# experimental.target: phosphorylated active hERK2 enzyme (Homo sapiens (Human), UniProt P28482)
# Sequence (P28482 whole entry): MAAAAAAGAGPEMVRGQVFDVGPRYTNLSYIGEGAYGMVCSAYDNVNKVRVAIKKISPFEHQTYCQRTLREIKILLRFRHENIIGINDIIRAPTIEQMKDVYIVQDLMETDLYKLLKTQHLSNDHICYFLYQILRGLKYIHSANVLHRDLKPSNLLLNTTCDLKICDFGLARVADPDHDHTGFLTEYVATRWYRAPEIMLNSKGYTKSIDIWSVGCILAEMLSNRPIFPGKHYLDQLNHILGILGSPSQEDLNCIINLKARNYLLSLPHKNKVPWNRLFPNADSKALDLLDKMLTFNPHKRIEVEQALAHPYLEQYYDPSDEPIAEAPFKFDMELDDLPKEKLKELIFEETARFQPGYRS
# test.description: Active Human ERK2 (hERK2) Activity Assay (IMAP-FP)
# Assay type: biochemical
# setup.conditions: Table 6, 0.5 nM hERK2, 30 μM ATP, 10 point titration, read-out: AERK2 IC50
Entries whose IC50 is below 2 nM take yes (1); entries at or above 2 nM take no (0).

Record excerpt, results attached:
CC(C)CNc1n[nH]c2cc(NC(=O)N[C@H](C)c3ccccc3)ncc12 = yes (1)
CCNc1n[nH]c2cc(NC(=O)NC(C)c3ccc(C)nc3)ncc12 (stereo not shown) = no (0)
Nc1n[nH]c2cc(NC(=O)NC3CCCC3c3ccccc3)ncc12 (stereo not shown) = no (0)

Given the entry C[C@@H](NC(=O)Nc1cc2[nH]nc(NC(=O)C3CCOCC3)c2cn1)c1ccccc1 , would its reported IC50 be below 2 nM? no (0)

I wonder whether CC(Nc1n[nH]c2cc(NC(=O)N[C@H](C)c3ccccc3)ncc12)C(F)(F)F (stereo partly shown) [Example 407] has IC50 below 2 nM. Can you tell? no (0)

Please let me know if COC(=O)Nc1n[nH]c2cc(NC(=O)N[C@H](C)c3ccc(Cl)c(Cl)c3)ncc12 shows IC50 below 2 nM. yes (1)

Quick check: does COC(=O)Nc1n[nH]c2cc(NC(=O)N[C@H]3c4ccccc4OCC[C@H]3O)ncc12 have IC50 under 2 nM? yes (1)

In the record for CC(C)(O)[C@@H](NC(=O)Nc1cc2[nH]nc(NC(=O)N3C[C@H]4COC[C@H]4C3)c2cn1)c1ccc(F)cc1 , is IC50 less than 2 nM? no (0)

In the record for C[C@@H](NC(=O)Nc1cc2[nH]nc(N3CCc4ncsc4C3)c2cn1)c1ccccc1 , is IC50 less than 2 nM? yes (1)

Is 2 nM strictly greater than the compound's reported IC50? compound: C[C@@H](NC(=O)Nc1cc2[nH]nc(NC(=O)CC3CCCCC3)c2cn1)c1ccccc1 no (0)

Given CC(C)(O)[C@@H](NC(=O)Nc1cc2[nH]nc(N3CC4CC3CO4)c2cn1)c1ccccc1 (stereo partly shown) , is recorded IC50 strictly lower than 2 nM? yes (1)

Lab note: confirm whether the reported IC50 for this compound is below 2 nM, equality not counting. compound: CCNC(=O)Nc1n[nH]c2cc(NC(=O)N[C@H](C)c3ccccc3)ncc12 no (0)

* * *

# experimental.target: phosphorylated active hERK2 enzyme (Homo sapiens (Human))
# test.description: Active Human ERK2 (hERK2) Activity Assay (IMAP-FP)
# Assay type: biochemical
# setup.conditions: Table 6, 0.5 nM hERK2, 30 μM ATP, 10 point titration, read-out: AERK2 IC50
measured.attribute: pIC50
One number for each entry, as −log10 of the molar value.

These recorded examples may help you get a feel for the data.
CC(CC1CCCCN1)Nc1n[nH]c2cc(NC(=O)N[C@H](C)c3ccccc3)ncc12 (some centres unmarked) [Example 176] = 7.42
C[C@@H](NC(=O)Nc1cc2[nH]nc(NC(=O)N[C@H](C)c3ccc(Cl)c(C(F)(F)F)c3)c2cn1)c1ccc(Cl)c(C(F)(F)F)c1 [Example 310] = 5.61
C[C@@H](NC(=O)Nc1cc2[nH]nc(NC3CCC(N(C)C)CC3)c2cn1)c1ccccc1 (some centres unmarked) [Example 172] = 7.51
C[C@@H](NC(=O)Nc1cc2[nH]nc(N3CCc4scnc4C3)c2cn1)c1ccc(F)cc1 [Example 63] = 8.24

Would you mind giving pIC50 for every compound in the list below?
1. C[C@@H](NC(=O)Nc1cc2[nH]nc(N[C@H]3COC[C@H]3F)c2cn1)c1ccccc1 [Example 85]
2. C[C@@H](NC(=O)Nc1cc2[nH]nc(NC(=O)c3cccnc3)c2cn1)c1ccccc1 [Example 211]
3. CCNc1n[nH]c2cc(NC(=O)NC(C)c3ccc(F)c(F)c3)ncc12 (centres unmarked) [Example 251]
4. C[C@@H](NC(=O)Nc1cc2[nH]nc(NC3CCNC3)c2cn1)c1ccccc1 (some centres unmarked) [Example 184]

1: 9.10; 2: 8.51; 3: 8.49; 4: 6.99

* * *

# experimental.target: UniProt P28482
# test.description: Active Human ERK2 (hERK2) Activity Assay (IMAP-FP)
# Format: biochemical
# setup.conditions: Table 6, 0.5 nM hERK2, 30 μM ATP, 10 point titration, read-out: AERK2 IC50
Kindly state log10(IC50) for each of the entries shown.
Log scale reminder: IC50 in nM, then log10 taken.

C=C(C)C1CC(CNc2n[nH]c3cc(NC(=O)N[C@H](C)c4ccccc4)ncc23)C1 (some centres unmarked) = 1.25
Nc1n[nH]c2cc(NC(=O)N[C@@H](c3ccccc3)C3(O)CCCC3)ncc12 = -0.40
COCc1nc(NC(=O)N[C@H](C)c2ccccc2)cc2[nH]nc(N)c12 = 0.18
Nc1n[nH]c2cc(NC(=O)N[C@@H](c3ccccc3)[C@H]3CCCO3)ncc12 = -0.15
COC(=O)Nc1n[nH]c2cc(NC(=O)N[C@@H](c3ccc(F)cc3)C(C)(C)O)ncc12 = -0.30

Give log10(IC50) for each listed item.
1. CNc1n[nH]c2cc(NC(=O)N[C@H](c3ccccc3)[C@H]3CCCO3)ncc12
2. CCN(C(C)=O)c1n[nH]c2cc(NC(=O)N[C@H](C)c3ccccc3)ncc12
3. COCC(C)(C)Nc1n[nH]c2cc(NC(=O)N[C@H](C)c3ccccc3)ncc12

2.39
1.52
2.59

* * *

# experimental.target: phosphorylated active hERK2 enzyme (Homo sapiens (Human), UniProt P28482)
# test.description: Active Human ERK2 (hERK2) Activity Assay (IMAP-FP)
# Assay type: biochemical
# setup.conditions: Table 6, 0.5 nM hERK2, 30 μM ATP, 10 point titration, read-out: AERK2 IC50
Doc: threshold 3 nM (exclusive). Items with IC50 beneath it return rule met; others return rule not met.

Take a look at these entries with their results.
COC1CC(CNc2n[nH]c3cc(NC(=O)N[C@H](C)c4ccccc4)ncc23)C1 (stereo partly shown) = rule met
C[C@@H](NC(=O)Nc1cc2[nH]nc(NC(=O)c3ccncc3)c2cn1)c1ccccc1 = rule met
O=C(Nc1cc2[nH]nc(N3CCOCC3)c2cn1)N[C@H](COC(F)F)c1ccccc1 = rule met
COC[C@@H](NC(=O)Nc1cc2[nH]nc(Nc3ccccc3F)c2cn1)c1ccccc1 = rule not met
CCNc1n[nH]c2cc(NC(=O)N[C@H](C)c3ccccc3)nc(C)c12 = rule met
Nc1n[nH]c2c(Cl)c(NC(=O)N[C@H](COC(F)F)c3ccccc3)ncc12 = rule not met
Cc1cccc(Cl)c1CNC(=O)Nc1cc2[nH]nc(N)c2cn1 = rule not met
[2H]C([2H])([2H])C(=O)Nc1n[nH]c2cc(NC(=O)N[C@H](C)c3ccccc3)ncc12 = rule met

Please state whether IC50 is below 3 nM for COC[C@@H](NC(=O)Nc1cc2[nH]nc(Nc3ccccc3Cl)c2cn1)c1ccccc1 rule not met

Is 3 nM strictly greater than the compound's reported IC50? compound: C[C@@H](O)[C@@H](NC(=O)Nc1cc2[nH]nc(N3CCOCC3)c2c(CO)n1)c1ccc(F)cc1 rule met

Confirm or reject: IC50 of CC[C@@H](NC(=O)Nc1cc2[nH]nc(NC(=O)OC)c2cn1)c1ccc(Cl)cc1 lies strictly below 3 nM rule met

Would you kindly verify if IC50 of C[C@@H](NC(=O)Nc1cc2[nH]nc(NC(=O)CC3CCCC3)c2cn1)c1ccccc1 is strictly less than 3 nM? rule met

I'd appreciate it if you could check whether C[C@@H](NC(=O)Nc1cc2[nH]nc(NC3COC3)c2cn1)c1ccccc1 has IC50 smaller than 3 nM. rule not met

* * *

# experimental.target: phosphorylated active hERK2 enzyme (Homo sapiens (Human))
# test.description: Active Human ERK2 (hERK2) Activity Assay (IMAP-FP)
# Format: biochemical
# setup.conditions: Table 6, 0.5 nM hERK2, 30 μM ATP, 10 point titration, read-out: AERK2 IC50
Threshold 3 nM. IC50 below it: rule met. IC50 at it or above: rule not met.

Take a look at these entries with their results.
Cc1cc(Nc2n[nH]c3cc(NC(=O)N[C@H](C)c4ccccc4)ncc23)ccn1 = rule not met
Nc1n[nH]c2cc(NC(=O)NCc3ccc(F)c(Cl)c3)ncc12 = rule not met
C[C@@H](NC(=O)Nc1cc2[nH]nc(N)c2c(CO)n1)c1ccccc1 = rule met
COCc1nc(NC(=O)N[C@H](C)c2ccccc2)cc2[nH]nc(NC(C)=O)c12 = rule not met
COC(=O)Nc1n[nH]c2cc(NC(=O)N[C@H](C)c3ccc(Cl)c(F)c3)ncc12 = rule met

Say whether its IC50 is strictly beneath 3 nM. Entry: COC(=O)Nc1n[nH]c2cc(NC(=O)N[C@@H](c3ccccc3)C3(O)CCC3)ncc12 rule met

Hello, I'm reviewing records and need to know if IC50 of COC[C@@H](NC(=O)Nc1cc2[nH]nc(Nc3cnn(C)c3)c2cn1)c1ccc(F)cc1 is below 3 nM. Could you check? rule not met

# TODO verify IC50 < 3 nM strictly for this compound: CCNc1n[nH]c2cc(NC(=O)NC(C(=O)N(C)C)c3ccc(F)cc3)ncc12 (centres unmarked) rule not met

Does CCNc1n[nH]c2cc(NC(=O)N[C@H](c3ccccc3)[C@H]3CCCO3)ncc12 have IC50 strictly under 3 nM? rule not met
